Assay: viability loss in PTEN-deleted colon tumor cells – cell-based, HCT116, CellTiter-Glo, primary screen (AID 827);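 further: PTEN knockout HCT116 line with beta catenin targeted HCT116 as companion control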
Settings: HCT116 PTEN-null viability, 60 h, at 10 µM
Hit rate of the full screen: of about 140,000 compounds, about 1,700 (1.2%) were called active.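 How the source made its calls: active means viability at or below a set limit, 4 SD under the median of all tested compounds (cut at about 3.7% in these data); inactive means the rest.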 The entries come from a sample that favours actives as a whole.
Choose one outcome from this list and give only that: 1 (active), -1 (inactive)

A selection of reference data follows.
{"compound": "N#Cc1ccc(C(=O)Nc2nc(-c3cccs3)c(C(=O)C(F)(F)F)s2)cc1", "label": -1}
{"compound": "Cc1ccc(-c2nn(-c3ccccc3)cc2C(=O)Nc2cccc(S(=O)(=O)N3CCOCC3)c2)cc1", "label": -1}
{"compound": "Cc1ccc(-n2nc(C)c(/C=N/NC(=O)c3cccs3)c2Cl)cc1", "label": -1}
{"compound": "CCN(CC)CCn1c(/N=C/c2cc(Br)ccc2O)nc2ccccc21", "label": -1}
{"compound": "COc1cc(/C=C2\\SC(=S)N(Nc3ncc(C(F)(F)F)cc3Cl)C2=O)cc(OC)c1OC", "label": -1}

Called result for COC(=O)c1c(NC(=O)CN2CCN(S(=O)(=O)c3ccccc3[N+](=O)[O-])CC2)sc2c1CCC(C)C2 (centres undefined)
-1
